- SYSTEM_NAME: DP receptor (Homo sapiens, UniProt Q13258)
- Construct: endogenous in cells
- Sequence (Q13258 1-359): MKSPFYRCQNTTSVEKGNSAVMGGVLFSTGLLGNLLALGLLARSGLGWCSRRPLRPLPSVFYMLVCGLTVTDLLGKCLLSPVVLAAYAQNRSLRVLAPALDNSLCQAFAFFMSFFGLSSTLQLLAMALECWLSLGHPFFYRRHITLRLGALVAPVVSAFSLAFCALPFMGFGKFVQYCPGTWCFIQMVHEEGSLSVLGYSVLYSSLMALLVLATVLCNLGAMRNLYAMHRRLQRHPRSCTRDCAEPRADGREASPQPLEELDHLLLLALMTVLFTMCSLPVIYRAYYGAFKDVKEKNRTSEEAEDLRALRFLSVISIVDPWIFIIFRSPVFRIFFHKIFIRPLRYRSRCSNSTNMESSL
- ASSAY_COMMENT: cAMP assay with washed platelets (PGD2-stimulated cAMP, HTRF)
- TEST_PARAMETERS: 100 nM PGD2, cAMP by HTRF, read-out: IC50 (50% DP-inhibitory concentration in the cAMP assay)
MEASUREMENT_NAME: IC50 (nM)
Note: unit nM is implicit; provide only the numeric part.

Data request: # query: IC50 | item CC(C)Oc1ccc(S(=O)(=O)N2CCC(c3cn(CC(=O)O)c4nc(-c5ccoc5)ccc34)CC2)cc1 | system: DP receptor (Homo sapiens, UniProt Q13258)
Data returned: 1.1

Data request: How about this compound: CC(C)Oc1ccc(S(=O)(=O)N2CCC(c3cn(CC(=O)O)c4nc(-c5nccs5)ccc34)CC2)cc1
Data returned: 0.64

Data request: How about this compound: CC(C)Oc1ccc(S(=O)(=O)N2CCC(c3cn(CC(=O)O)c4nc(NC(=O)OC(C)(C)C)ccc34)CC2)cc1
Data returned: 1.9
